target: human RIP1 kinase domain (2-375) (Homo sapiens (Human), UniProt Q13546); assay: biochemical; assay type: biochemical; conditions: human RIP1 kinase domain (2-375), 50 uM ATP, 2 hours incubation, Transcreener ADP assay; read-out: RIP1 Ki
Sequence (Q13546 2-375): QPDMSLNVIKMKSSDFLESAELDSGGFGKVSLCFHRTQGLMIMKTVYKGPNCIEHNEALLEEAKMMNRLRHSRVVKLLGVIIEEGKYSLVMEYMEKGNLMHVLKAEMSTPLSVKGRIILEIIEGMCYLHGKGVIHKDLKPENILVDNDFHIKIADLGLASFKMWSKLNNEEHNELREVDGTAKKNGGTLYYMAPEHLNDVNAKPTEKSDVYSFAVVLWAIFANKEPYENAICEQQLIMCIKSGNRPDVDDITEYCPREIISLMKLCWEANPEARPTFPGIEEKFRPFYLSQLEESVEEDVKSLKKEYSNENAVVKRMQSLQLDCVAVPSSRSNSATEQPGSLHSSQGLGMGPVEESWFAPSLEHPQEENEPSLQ
pKi: −log10 of the molar value.
Where pKi equals or exceeds 7, the correct label is Satisfied; where it does not, the label is Not satisfied.

>>> cat("CN1C(=O)C(NC(=O)c2nnc(Cc3ccccc3)[nH]2)CCCn2cncc21 (stereo not shown)")
"Not satisfied"
>>> cat("Cc1cc2n(n1)CC[C@H](NC(=O)c1ncn(CC3CCCCC3)n1)C(=O)N2C")
"Satisfied"
>>> cat("CN1C(=O)[C@@H](NC(=O)c2ncn(Cc3ccc(F)c(F)c3)n2)CCn2nc(C3CC3)cc21")
"Satisfied"
>>> cat("Cc1cc2n(n1)CC[C@H](NC(=O)c1ncn(Cc3ccc(Cl)cc3)n1)C(=O)N2C")
"Satisfied"
>>> cat("CCn1nc(C(=O)N[C@H]2COc3ccccc3N(C)C2=O)c2c1CC[C@@H](C(F)(F)F)C2 (single isomer, unassigned)")
"Not satisfied"

input: Please indicate if the recorded pKi for CN1C(=O)C(NC(=O)c2ncn(Cc3ccccc3)n2)CCn2nc3c(c21)CS(=O)(=O)C3 (stereo not shown) meets or exceeds 7.
output: Not satisfied

input: Please indicate if the recorded pKi for Cc1cnn2c1N(C)C(=O)[C@@H](NC(=O)c1ncn(Cc3ccccc3)n1)CC2 meets or exceeds 7.
output: Satisfied

input: Please indicate if the recorded pKi for CC(C)n1ncc2c1OC[C@H](NC(=O)c1nnc(Cc3ccccc3)[nH]1)C(=O)N2 meets or exceeds 7.
output: Not satisfied

input: Please indicate if the recorded pKi for CN1C(=O)[C@@H](NC(=O)c2ncn(Cc3ccccc3)n2)CCn2nc([C@H]3CC3(F)F)cc21 meets or exceeds 7.
output: Satisfied

input: Please indicate if the recorded pKi for Cc1cc2n(n1)CC[C@H](NC(=O)c1ncn(Cc3ccc(F)c(F)c3)n1)C(=O)N2C meets or exceeds 7.
output: Satisfied
